Where do these numbers come from? They come from patent US9708315B2.

- subjectOfTest: human mGlu2 receptor (Homo sapiens)
- Construct: expressed in transfected cells; host or cells: CHO cells
- testName: [35S]GTPγS binding assay, mGluR2 PAM
- Assay type: biochemical
- conditionsUsed: GTPγS - hmGluR2 PAM pEC50, in presence of glutamate at EC20; EC50 expressed in M
measuredEndpoint: pEC50
Schema: pEC50 number; meaning minus log10 of the concentration expressed in molar units.

Q. Suppose we examine the compound CC(Oc1ccc(F)cc1F)c1ccn2c(CC3CCC3)nnc2c1C(F)(F)F (single isomer, unassigned) [Compound 18] ; what pEC50 value has been reported?
A. 6.24

---

- subjectOfTest: human mGlu2 receptor (Homo sapiens, UniProt Q14416)
- Construct: expressed in transfected cells; host or cells: CHO cells
- Sequence (Q14416 19-872): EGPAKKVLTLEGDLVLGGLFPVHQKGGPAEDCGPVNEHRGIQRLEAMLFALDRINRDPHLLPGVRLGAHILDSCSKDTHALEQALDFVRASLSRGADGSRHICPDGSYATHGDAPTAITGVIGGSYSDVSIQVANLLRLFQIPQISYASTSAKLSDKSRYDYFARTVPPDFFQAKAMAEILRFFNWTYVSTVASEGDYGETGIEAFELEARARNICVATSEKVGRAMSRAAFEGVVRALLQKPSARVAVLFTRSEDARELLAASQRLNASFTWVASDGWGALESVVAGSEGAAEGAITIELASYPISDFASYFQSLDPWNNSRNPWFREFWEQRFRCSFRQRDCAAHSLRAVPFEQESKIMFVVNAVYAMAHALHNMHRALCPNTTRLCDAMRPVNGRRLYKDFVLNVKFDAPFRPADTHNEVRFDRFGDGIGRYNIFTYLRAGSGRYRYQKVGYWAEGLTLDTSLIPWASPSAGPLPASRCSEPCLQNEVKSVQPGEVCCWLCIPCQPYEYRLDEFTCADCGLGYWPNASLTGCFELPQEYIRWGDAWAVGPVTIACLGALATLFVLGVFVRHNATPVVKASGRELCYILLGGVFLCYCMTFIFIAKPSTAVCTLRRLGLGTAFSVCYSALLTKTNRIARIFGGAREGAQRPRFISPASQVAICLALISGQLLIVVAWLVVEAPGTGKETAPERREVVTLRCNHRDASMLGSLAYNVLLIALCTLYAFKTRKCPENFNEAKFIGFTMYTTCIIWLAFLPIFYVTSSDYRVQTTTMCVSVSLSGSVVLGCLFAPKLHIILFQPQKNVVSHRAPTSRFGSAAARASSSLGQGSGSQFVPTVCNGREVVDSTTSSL
- testName: [35S]GTPγS binding assay, mGluR2 PAM
- Type: biochemical
- conditionsUsed: in presence of glutamate at EC20; EC50 expressed in M; read-out: GTPγS - hmGluR2 PAM pEC50 (converted)
measuredEndpoint: EC50
Dear colleague, please send the value followed by its unit.

compound	EC50
C[C@H](Oc1ccc(F)c(F)c1)c1ccn2c(CC3CC3)nnc2c1C(F)(F)F [Compound 8]	91.2 nM
C[C@@H](Oc1ccc(F)cc1F)c1ccn2c(CC3CC3)nnc2c1C(F)(F)F [Compound 5]	871 nM
Cc1ccc(O[C@@H](C)c2ccn3c(CC4CC4)nnc3c2C(F)(F)F)c(Cl)c1 [Compound 13]	17.8 nM
CCOCc1nnc2c(C(F)(F)F)c(C(C)Oc3ccc(F)cc3F)ccn12 (centres unmarked) [Compound 19]	195 nM

API: the following record is the query input.
Q. What reported EC50 corresponds to CCCc1nnc2c(C(F)(F)F)c(C(C)Oc3ccc(F)cc3F)ccn12 (centres unmarked) [Compound 30] on human mGlu2 receptor (Homo sapiens, UniProt Q14416)?
A. 126 nM
